- Tested on: rodent lifetime carcinogenesis bioassay, tumor incidence TD50
- test description: carcinogenic potency in animals, long-term in vivo studies, CPDB compilation (AID 1745844)
- measurement context: rat; strain DA (from Hannover); males; by gavage; site: kidney; lesion: adenocarcinoma; dosed 110 weeks; study length 110 weeks

chemical smiles: C[C@@H]1Cc2c(Cl)cc(C(=O)N[C@@H](Cc3ccccc3)C(=O)O)c(O)c2C(=O)O1
TD50: 0.368 mg/kg/day

====

- Test system: rodent lifetime carcinogenesis bioassay, tumor incidence TD50
- test description: carcinogenic potency in animals, long-term in vivo studies, CPDB compilation (AID 1745844)
- measurement context: mouse; strain B6C3F1; females; in feed; site: liver; lesion: several types; types named in the paper; dosed 80 weeks; study length 90 weeks
property name: TD50

chemical smiles: Cc1c([N+](=O)[O-])c(C)c([N+](=O)[O-])c(C(C)(C)C)c1[N+](=O)[O-]
property name: TD50
test value: 203 mg/kg/day

====

- Tested on: rodent lifetime carcinogenesis bioassay, tumor incidence TD50
- test description: carcinogenic potency in animals, long-term in vivo studies, CPDB compilation (AID 1745844)
- measurement context: rat; strain Fischer 344; males; by gavage; site: liver; lesion: neoplastic nodule; dosed 104 weeks; study length 106 weeks
property name: TD50

chemical smiles: ClC=CCCl
test value: 76 mg/kg/day

====

- System: rodent lifetime carcinogenesis bioassay, tumor incidence TD50
- test description: carcinogenic potency in animals, long-term in vivo studies, CPDB compilation (AID 1745844)
- measurement context: mouse; strain Swiss albino; males; in drinking water; site: preputial gland; lesion: several types; types named in the paper; dosed 60 weeks; study length 60 weeks

chemical smiles: CCN(N)C=O
target of assay: rodent lifetime carcinogenesis bioassay, tumor incidence TD50
TD50: 50.8 mg/kg/day

====

- System: rodent lifetime carcinogenesis bioassay, tumor incidence TD50
- test description: carcinogenic potency in animals, long-term in vivo studies, CPDB compilation (AID 1745844)
- measurement context: rat; strain Charles River CD (Sprague-Dawley); males; in feed; site: any site (literature study); lesion: several types; types named in the paper; dosed 77 weeks; study length 103 weeks
Activity calls are given as the source filed them. The rule behind the calls is not given here.
property name: TD50

chemical smiles: O=[N+]([O-])c1ccc(Cl)c([N+](=O)[O-])c1
test value: 12.3 mg/kg/day (inactive)

chemical smiles: Cc1ccc(C)c(N)c1
test value: 67.2 mg/kg/day

====

- Test system: rodent lifetime carcinogenesis bioassay, tumor incidence TD50
- test description: carcinogenic potency in animals, long-term in vivo studies, CPDB compilation (AID 1745844)
- measurement context: hamster; strain Syrian Golden; females; in drinking water; site: ovary; lesion: carcinoma; dosed 90 weeks; study length 90 weeks
property name: TD50 (mg/kg/day)

chemical smiles: CCOC(N)=O
test value: 682

====

- Tested on: rodent lifetime carcinogenesis bioassay, tumor incidence TD50
- test description: carcinogenic potency in animals, long-term in vivo studies, CPDB compilation (AID 1745844)
- measurement context: rat; strain Fischer 344; males; in feed; site: adrenal medulla; lesion: pheochromocytoma; dosed 104 weeks; study length 104 weeks
Activity calls are given as the source filed them. The rule behind the calls is not given here.
property name: TD50

chemical smiles: [Na+]
property name: TD50
test value: 2980 mg/kg/day (inactive)
//
chemical smiles: Cl
property name: TD50
test value: 6210 mg/kg/day (inactive)

====

- Tested on: rodent lifetime carcinogenesis bioassay, tumor incidence TD50
- test description: carcinogenic potency in animals, long-term in vivo studies, CPDB compilation (AID 1745844)
- measurement context: mouse; strain B6C3F1; males; inhaled; site: lung; lesion: alveolar/bronchiolar adenoma + alveolar/bronchiolar carcinoma; dosed 103 weeks; study length 106 weeks

chemical smiles: O=C(CCl)c1ccccc1
target of assay: rodent lifetime carcinogenesis bioassay, tumor incidence TD50
TD50: 10.4 mg/kg/day

====

- Test system: rodent lifetime carcinogenesis bioassay, tumor incidence TD50
- test description: carcinogenic potency in animals, long-term in vivo studies, CPDB compilation (AID 1745844)
- measurement context: mouse; strain B6C3F1; males; in drinking water; site: liver; lesion: hepatocellular adenoma; dosed 100 weeks; study length 104 weeks
Active and inactive are the calls of the source. The rule behind the calls is not given here.

chemical smiles: Cc1c(N(C)C)c(=O)n(-c2ccccc2)n1C
TD50: 683 mg/kg/day (inactive)

====

- System: rodent lifetime carcinogenesis bioassay, tumor incidence TD50
- test description: carcinogenic potency in animals, long-term in vivo studies, CPDB compilation (AID 1745844)
- measurement context: hamster; strain Syrian Golden; females; in drinking water; site: cecum; lesion: several types; types named in the paper; dosed 79 weeks; study length 79 weeks
property name: TD50

chemical smiles: CN(C)N
property name: TD50
test value: 104 mg/kg/day

====

- System: rodent lifetime carcinogenesis bioassay, tumor incidence TD50
- test description: carcinogenic potency in animals, long-term in vivo studies, CPDB compilation (AID 1745844)
- measurement context: rat; strain F344/DuCrj; males; in feed; site: kidney; lesion: transitional-cell carcinoma; dosed 104 weeks; study length 104 weeks
Calls of active or inactive are those of the source. No rule for the calls is given here.

chemical smiles: c1ccc2[nH]c(-c3cscn3)nc2c1
target of assay: rodent lifetime carcinogenesis bioassay, tumor incidence TD50
TD50: 3050 mg/kg/day (inactive)

====

- System: rodent lifetime carcinogenesis bioassay, tumor incidence TD50
- test description: carcinogenic potency in animals, long-term in vivo studies, CPDB compilation (AID 1745844)
- measurement context: mouse; strain Swiss; females; in feed; site: lung; lesion: carcinoma; dosed 46 weeks; study length 53 weeks

chemical smiles: O=CNc1nc(-c2ccc([N+](=O)[O-])o2)cs1
TD50: 163 mg/kg/day

====

- Test system: rodent lifetime carcinogenesis bioassay, tumor incidence TD50
- test description: carcinogenic potency in animals, long-term in vivo studies, CPDB compilation (AID 1745844)
- measurement context: mouse; strain C57BL/6N; males; in feed; site: liver; lesion: hepatocellular adenoma; dosed 78 weeks; study length 78 weeks
property name: TD50

compound: CC(C)(Oc1ccc(C2CC2(Cl)Cl)cc1)C(=O)O (stereo unspecified)
test value: 5.89 mg/kg/day

====

- Test system: rodent lifetime carcinogenesis bioassay, tumor incidence TD50
- test description: carcinogenic potency in animals, long-term in vivo studies, CPDB compilation (AID 1745844)
- measurement context: rat; strain Osborne-Mendel; females; in feed; site: thyroid gland; lesion: c-cell adenoma + c-cell carcinoma; dosed 78 weeks; study length 110 weeks

chemical smiles: O=C(Nc1ccc([N+](=O)[O-])cc1Cl)c1cc(Cl)ccc1O
target of assay: rodent lifetime carcinogenesis bioassay, tumor incidence TD50
unit of measure: mg/kg/day
TD50: 6670

====

- Test system: rodent lifetime carcinogenesis bioassay, tumor incidence TD50
- test description: carcinogenic potency in animals, long-term in vivo studies, CPDB compilation (AID 1745844)
- measurement context: mouse; strain Swiss albino; females; in drinking water; site: lung; lesion: adenoma; dosed 119 weeks; study length 119 weeks
property name: TD50 (mg/kg/day)

chemical smiles: CCCCNN
property name: TD50
test value: 19.3

====

- Test system: rodent lifetime carcinogenesis bioassay, tumor incidence TD50
- test description: carcinogenic potency in animals, long-term in vivo studies, CPDB compilation (AID 1745844)
- measurement context: mouse; strain Swiss albino; males; in drinking water; site: forestomach; lesion: squamous-cell papilloma; dosed 109 weeks; study length 109 weeks

chemical smiles: CCCCN(N)CCCC
TD50 / mg/kg/day: 109

====

- System: rodent lifetime carcinogenesis bioassay, tumor incidence TD50
- test description: carcinogenic potency in animals, long-term in vivo studies, CPDB compilation (AID 1745844)
- measurement context: mouse; strain B6C3F1; females; by gavage; site: Harderian gland; lesion: adenoma + adenoma, bilateral; dosed 88 weeks; study length 104 weeks

chemical smiles: ClCC(Cl)CCl
target of assay: rodent lifetime carcinogenesis bioassay, tumor incidence TD50
TD50: 7.05 mg/kg/day

====

- Tested on: rodent lifetime carcinogenesis bioassay, tumor incidence TD50
- test description: carcinogenic potency in animals, long-term in vivo studies, CPDB compilation (AID 1745844)
- measurement context: mouse; strain Monohybrid cross offspring of B6CF1 (C57BL/6 x BALB/c); males; in feed; site: testis; lesion: interstitial-cell tumor; dosed 147 weeks; study length 158 weeks

chemical smiles: CC/C(=C(/CC)c1ccc(O)cc1)c1ccc(O)cc1
target of assay: rodent lifetime carcinogenesis bioassay, tumor incidence TD50
TD50: 0.0661 mg/kg/day

====

- Test system: rodent lifetime carcinogenesis bioassay, tumor incidence TD50
- test description: carcinogenic potency in animals, long-term in vivo studies, CPDB compilation (AID 1745844)
- measurement context: mouse; strain B6C3F1; males; in feed; site: any site (literature study); lesion: several types; types named in the paper; dosed 105 weeks; study length 105 weeks
Active and inactive are the calls of the source. How the calls were made is not given here.
property name: TD50

chemical smiles: NC(=O)c1ccccc1C(N)=O
target of assay: rodent lifetime carcinogenesis bioassay, tumor incidence TD50
property name: TD50
test value: 1.1e+06 mg/kg/day (inactive)
//
chemical smiles: Brc1cc(Br)c(-c2cc(Br)c(Br)cc2Br)cc1Br
target of assay: rodent lifetime carcinogenesis bioassay, tumor incidence TD50
property name: TD50
test value: 0.349 mg/kg/day

// data source = PubChem BioAssay AID1745844
